Target: mMCP-6/heparin complex (Mus musculus)
Construct: endogenous pro-peptide followed by EK-susceptible peptide (Asp-Asp-Asp-Asp-Lys) (N, cleaved yes); made in house; host or cells: baculovirus; Spodoptera frugiperda 9 for virus, Trichoplusia ni High Five insect cells for expression
Sequence (P21845 32-276): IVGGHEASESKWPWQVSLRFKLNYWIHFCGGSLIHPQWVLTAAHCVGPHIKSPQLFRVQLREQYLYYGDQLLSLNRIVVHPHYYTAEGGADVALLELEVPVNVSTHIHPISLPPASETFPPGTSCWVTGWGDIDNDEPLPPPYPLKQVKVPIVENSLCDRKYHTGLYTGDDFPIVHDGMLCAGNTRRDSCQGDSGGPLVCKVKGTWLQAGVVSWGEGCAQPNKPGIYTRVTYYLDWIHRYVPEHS
Assay: screening of tryptase-specific phage peptide display library with mMCP-6-FLAG in the presence of heparin
Format: biochemical
Conditions: two rounds of treatment, equal weight amount of heparin
Where no end group is shown, it is not given here.
Assay metric: Clones (number of clones with this mMCP-6-susceptible peptide)

Completed entries (count: 4):
Form field Clones (number of clones with this mMCP-6-susceptible peptide), entry SLSSRQSP : 3

Query TPLLKSWL yields Clones (number of clones with this mMCP-6-susceptible peptide) of 5

Sample PKETKQTN ; Clones (number of clones with this mMCP-6-susceptible peptide) observed: 1

Recorded result, PFTHKSLS , Clones (number of clones with this mMCP-6-susceptible peptide): 1

a = SVLPKLRI
b = RNRQKTNN
In: Sort a and b by Clones (number of clones with this mMCP-6-susceptible peptide) descending and give the first. Refer to your chosen entry by its label in the reply.
Out: b
(b: 11, a: 1)

###

Target: mMCP-6/heparin complex (Mus musculus, UniProt P21845)
Construct: endogenous pro-peptide followed by EK-susceptible peptide (Asp-Asp-Asp-Asp-Lys) (N, cleaved yes); made in house; host or cells: baculovirus; Spodoptera frugiperda 9 for virus, Trichoplusia ni High Five insect cells for expression
Sequence (P21845 32-276): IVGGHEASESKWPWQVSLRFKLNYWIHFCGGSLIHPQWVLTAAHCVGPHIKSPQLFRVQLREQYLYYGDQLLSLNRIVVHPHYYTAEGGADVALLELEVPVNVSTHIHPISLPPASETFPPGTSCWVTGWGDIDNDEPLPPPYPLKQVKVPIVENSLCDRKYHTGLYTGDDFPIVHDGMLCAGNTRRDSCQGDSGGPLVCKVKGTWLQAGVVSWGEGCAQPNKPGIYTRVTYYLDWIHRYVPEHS
Assay: screening of tryptase-specific phage peptide display library with mMCP-6-FLAG in the presence of heparin
Format: biochemical
Conditions: four rounds of treatment, equal weight amount of heparin
Where no end group is shown, it is not given here.
Assay metric: Clones (number of clones with this mMCP-6-susceptible peptide)

Some solved cases for reference:
So for TPLLKSWL , the logged Clones (number of clones with this mMCP-6-susceptible peptide) turned out to be 7

# sequence SVLPKLRI ; its Clones (number of clones with this mMCP-6-susceptible peptide) = 1

A = PKETKQTN
B = RNRQKTNN
C = SLSSRQSP
In: List items by Clones (number of clones with this mMCP-6-susceptible peptide) in falling order. // rank by listing labels in the order requested
Out: B, C, A
(B: 4, C: 2, A: 1)

###

Molecular target: recombinant mMCP-6-FLAG (Mus musculus, UniProt P21845)
Construct: endogenous pro-peptide followed by EK-susceptible peptide (Asp-Asp-Asp-Asp-Lys) (N, cleaved yes); made in house; host or cells: baculovirus; Spodoptera frugiperda 9 for virus, Trichoplusia ni High Five insect cells for expression
Sequence (P21845 32-276): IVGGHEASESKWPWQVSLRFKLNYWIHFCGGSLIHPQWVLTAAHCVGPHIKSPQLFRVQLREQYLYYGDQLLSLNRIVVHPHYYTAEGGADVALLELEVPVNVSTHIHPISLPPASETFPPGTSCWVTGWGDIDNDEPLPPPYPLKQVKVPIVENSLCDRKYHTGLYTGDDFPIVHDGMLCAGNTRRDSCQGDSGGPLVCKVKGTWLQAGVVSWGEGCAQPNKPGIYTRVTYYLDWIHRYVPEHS
Assay: screening of tryptase-specific phage peptide display library with mMCP-6-FLAG in the absence of heparin
Type: biochemical
Conditions: library incubated 4 times with mMCP-6-FLAG, 30 clones
Where no end group is shown, it is not given here.
Assay metric: Clones (number of clones with this mMCP-6-susceptible peptide)

Below: 3 sequences and their reported Clones (number of clones with this mMCP-6-susceptible peptide).
Clones (number of clones with this mMCP-6-susceptible peptide) recorded for this sequence, PDNQRYIT , is 1

// field: Clones (number of clones with this mMCP-6-susceptible peptide); key: PPPFRRSS ; value = 1

Per the records, this sequence ( SLALRVWR ) has Clones (number of clones with this mMCP-6-susceptible peptide) equal to 1

P = KKIERRNT
Q = VRPVKSFR
In: Kindly compare P with Q and tell me which has the lower Clones (number of clones with this mMCP-6-susceptible peptide) figure. Mark your selection by writing its label.
Out: P
(P: 1, Q: 2)

Origin of measurements: patent US5955431A
